Test system: L929 cell line
method_summary: Cytotoxicity MTS assay, L929 cell line
Type: cell-based
measurement_setup: L929 cell line, 100μM, first assay
parameter: OD490 values, Well 3

compound	tgt	reported_value
CCOC(=O)c1[nH]c(C2NC(=O)NC(C)=C2C(=O)Nc2ccccc2C)c(C(=O)OC)c1C (stereo not shown)	L929 cell line	0.6379
CCOC(=O)c1[nH]c(C2NC(=O)NC(C)=C2C(=O)Nc2ccccc2OC)c(C(=O)OC)c1C (stereo not shown)	L929 cell line	1.0171
CCOC(=O)c1c(C2NC(=O)NC(C)=C2C(=O)Nc2ccccc2)[nH]c(C(=O)OC)c1C (stereo not shown)	L929 cell line	0.9752
CCOC(=O)C1=C(C)NC(=S)NC1c1cccc(O)c1 (stereo not shown) [Monastrol, monastrol, reference compound]	L929 cell line	1.0076
COC(=O)c1[nH]c(C2NC(=S)NC(C)=C2C(=O)c2ccccc2)c(C(=O)OC)c1C (stereo not shown)	L929 cell line	1.2998
CCOC(=O)c1c(C2NC(=O)NC(C)=C2C(=O)Nc2ccccc2OC)[nH]c(C(=O)OC)c1C (stereo not shown) [D1]	L929 cell line	1.1419
CCOc1ccccc1C1NC(=S)NC(C)=C1C(=O)Nc1ccc(Cl)cc1 (stereo not shown)	L929 cell line	0.6781
CCOC(=O)c1[nH]c(C2NC(=S)NC(C)=C2C(=O)OC)c(C(=O)OCC)c1C (stereo not shown)	L929 cell line	0.8587
CCOC(=O)c1c(C2NC(=O)NC(C)=C2C(=O)Nc2ccccc2C)[nH]c(C(=O)OC)c1C (stereo not shown) [D2]	L929 cell line	1.2618
CCOC(=O)c1[nH]c(C2NC(=O)NC(C)=C2C(=O)Nc2ccc(Cl)cc2)c(C(=O)OCC)c1C (stereo not shown)	L929 cell line	0.6215

====

We begin with a simple list: items and their reported OD490 Well 2.
Test system: Caco-2 cell line
method_summary: Cytotoxicity MTS assay, Caco-2 cell line
Format: cell-based
measurement_setup: 1μM; third assay; Caco-2 cell line
parameter: OD490 Well 2

molecule	tgt	parameter	reported_value
CCOC(=O)c1[nH]c(C2NC(=O)NC(C)=C2C(=O)Nc2ccccc2C)c(C(=O)OC)c1C (stereo not shown)	Caco-2 cell line	OD490 Well 2	0.6890
CCOC(=O)c1[nH]c(C2NC(=S)NC(C)=C2C(=O)OC)c(C(=O)OCC)c1C (stereo not shown)	Caco-2 cell line	OD490 Well 2	0.6489
CCOC(=O)C1=C(C)NC(=S)NC1c1cccc(O)c1 (stereo not shown) [Monastrol, monastrol, reference compound]	Caco-2 cell line	OD490 Well 2	0.6854
CCOC(=O)c1c(C2NC(=O)NC(C)=C2C(=O)Nc2ccccc2OC)[nH]c(C(=O)OC)c1C (stereo not shown) [D1]	Caco-2 cell line	OD490 Well 2	0.6112
CCOC(=O)c1[nH]c(C2NC(=O)NC(C)=C2C(=O)Nc2ccc(Cl)cc2)c(C(=O)OCC)c1C (stereo not shown)	Caco-2 cell line	OD490 Well 2	0.5741
COC(=O)c1[nH]c(C2NC(=S)NC(C)=C2C(=O)c2ccccc2)c(C(=O)OC)c1C (stereo not shown)	Caco-2 cell line	OD490 Well 2	0.6014
CCOC(=O)c1c(C2NC(=O)NC(C)=C2C(=O)Nc2ccccc2)[nH]c(C(=O)OC)c1C (stereo not shown)	Caco-2 cell line	OD490 Well 2	0.6621
CCOc1ccccc1C1NC(=S)NC(C)=C1C(=O)Nc1ccc(Cl)cc1 (stereo not shown)	Caco-2 cell line	OD490 Well 2	0.6914
CCOC(=O)c1c(C2NC(=O)NC(C)=C2C(=O)Nc2ccccc2C)[nH]c(C(=O)OC)c1C (stereo not shown) [D2]	Caco-2 cell line	OD490 Well 2	0.7010
CCOC(=O)c1[nH]c(C2NC(=O)NC(C)=C2C(=O)Nc2ccccc2OC)c(C(=O)OC)c1C (stereo not shown)	Caco-2 cell line	OD490 Well 2	0.6888
